Listing of recorded Soil treatment phytotoxicity, Cotton by entry.
System: cotton
Test: Phytotoxicity test for field crops (soil treatment test)
Type: in vivo
Design: key: 0 (no harm); 9 (complete withered)
Details: 100 g ai/ha; Cotton (20 days after treatment)
assay.readout: Soil treatment phytotoxicity, Cotton

>>> number("Cn1nnnc1NC(=O)c1ccc(C(F)(F)F)nc1Sc1nnnn1C [Compound No. 1-40]")
0
>>> number("Cn1nnnc1COc1nc(C(F)(F)F)ccc1C(=S)Nc1nnnn1C [Compound No. 1-43]")
2
>>> number("Cn1ncnc1COc1nc(C(F)(F)F)ccc1C(=O)Nc1nnnn1C [Compound No. 1-45]")
5
>>> number("Cn1nnc(CSCc2nc(C(F)(F)F)ccc2C(=O)N(c2nnnn2C)S(C)(=O)=O)n1 [Compound No. 2-110]")
0
>>> number("COc1nc(COCc2nc(C(F)(F)F)ccc2C(=O)Nc2nnnn2C)nn1C [Compound No. 2-129]")
5
>>> number("Cn1nnc(COCc2nc(C(F)(F)Cl)ccc2C(=O)Nc2nnnn2C)n1 [Compound No. 2-78]")
9
>>> number("Cn1nc(COCc2nc(C(F)(F)F)ccc2C(=O)Nc2nnnn2C)nc1Br [Compound No. 2-136]")
0
>>> number("Cn1nc(COCc2nc(C(F)(F)F)ccc2C(=O)Nc2nnnn2C)nc1C#N [Compound No. 2-134]")
2
